# Test system: Lymphs
# Experiment notes: Peptidases to distinguish leukemia from non-leukemia, lymphocytes
# Type: cell-based, human
# Parameters: unit not given here
# Conditions used: J4 12/3/91 acute leuk.

Compound	enzyme activity
CC(C)C[C@H](N)C(=O)NCC(=O)Nc1ccc2c(c1)Oc1cc(NC(=O)CNC(=O)[C@@H](N)CC(C)C)ccc1C21OC(=O)c2ccccc21	0.19
C[C@H](N)C(=O)Nc1ccc2c(c1)Oc1cc(NC(=O)[C@H](C)N)ccc1C21OC(=O)c2ccccc21	74.64
C[C@@H](O)[C@H](N)C(=O)N1CCC[C@H]1C(=O)Nc1ccc2c(c1)Oc1cc(NC(=O)[C@@H]3CCCN3C(=O)[C@@H](N)[C@@H](C)O)ccc1C21OC(=O)c2ccccc21	1.18
O=C1OC2(c3ccc(NC(=O)[C@@H]4CCCN4)cc3Oc3cc(NC(=O)[C@@H]4CCCN4)ccc32)c2ccccc21 [PRO, (H--L--Pro)2 Rho 110-2TFA]	0.24
CC(C)[C@H](N)C(=O)N[C@@H](CO)C(=O)Nc1ccc2c(c1)Oc1cc(NC(=O)[C@H](CO)NC(=O)[C@@H](N)C(C)C)ccc1C21OC(=O)c2ccccc21 [VS, (H--L--Val--Ser)2 Rho 110-2TFA]	0.04
NC(=O)CC[C@H](N)C(=O)N[C@@H](CO)C(=O)Nc1ccc2c(c1)Oc1cc(NC(=O)[C@H](CO)NC(=O)[C@@H](N)CCC(N)=O)ccc1C21OC(=O)c2ccccc21 [QS, (H--L--Gln--Ser)2 Rho 110-2TFA]	0.06
NCC(=O)Nc1ccc2c(c1)Oc1cc(NC(=O)CN)ccc1C21OC(=O)c2ccccc21	31.51
NCCCC[C@H](N)C(=O)Nc1ccc2c(c1)Oc1cc(NC(=O)[C@@H](N)CCCCN)ccc1C21OC(=O)c2ccccc21 [LYS, (H--L--Lys)2 Rho 110-4TFA]	1.64
NCC(=O)N1CCC[C@H]1C(=O)Nc1ccc2c(c1)Oc1cc(NC(=O)[C@@H]3CCCN3C(=O)CN)ccc1C21OC(=O)c2ccccc21	4.17

====

# Test system: Grans
# Experiment notes: Peptidases to distinguish leukemia from non-leukemia, granulocytes
# Type: cell-based, human
# Set-up: unit not given here
# Conditions used: N197 normal
Outcome: 1.0 for enzyme activity of at least 4; 0.0 for anything lower.

Compound	Target of assay	Class name
CC(C)C[C@H](N)C(=O)NCC(=O)Nc1ccc2c(c1)Oc1cc(NC(=O)CNC(=O)[C@@H](N)CC(C)C)ccc1C21OC(=O)c2ccccc21	Grans	1.0
C[C@H](N)C(=O)Nc1ccc2c(c1)Oc1cc(NC(=O)[C@H](C)N)ccc1C21OC(=O)c2ccccc21	Grans	1.0
CC(C)[C@H](N)C(=O)N[C@@H](CO)C(=O)Nc1ccc2c(c1)Oc1cc(NC(=O)[C@H](CO)NC(=O)[C@@H](N)C(C)C)ccc1C21OC(=O)c2ccccc21 [VS, (H--L--Val--Ser)2 Rho 110-2TFA]	Grans	0.0
NCC(=O)N1CCC[C@H]1C(=O)Nc1ccc2c(c1)Oc1cc(NC(=O)[C@@H]3CCCN3C(=O)CN)ccc1C21OC(=O)c2ccccc21	Grans	1.0
O=C1OC2(c3ccc(NC(=O)[C@@H]4CCCN4)cc3Oc3cc(NC(=O)[C@@H]4CCCN4)ccc32)c2ccccc21 [PRO, (H--L--Pro)2 Rho 110-2TFA]	Grans	0.0
NCCCC[C@H](N)C(=O)Nc1ccc2c(c1)Oc1cc(NC(=O)[C@@H](N)CCCCN)ccc1C21OC(=O)c2ccccc21 [LYS, (H--L--Lys)2 Rho 110-4TFA]	Grans	0.0
C[C@@H](O)[C@H](N)C(=O)N1CCC[C@H]1C(=O)Nc1ccc2c(c1)Oc1cc(NC(=O)[C@@H]3CCCN3C(=O)[C@@H](N)[C@@H](C)O)ccc1C21OC(=O)c2ccccc21	Grans	0.0
NCC(=O)Nc1ccc2c(c1)Oc1cc(NC(=O)CN)ccc1C21OC(=O)c2ccccc21	Grans	1.0
NC(=O)CC[C@H](N)C(=O)N[C@@H](CO)C(=O)Nc1ccc2c(c1)Oc1cc(NC(=O)[C@H](CO)NC(=O)[C@@H](N)CCC(N)=O)ccc1C21OC(=O)c2ccccc21 [QS, (H--L--Gln--Ser)2 Rho 110-2TFA]	Grans	0.0

====

# System: Grans
# Experiment notes: Peptidases to distinguish leukemia from non-leukemia, granulocytes
# Format: cell-based, human
# Parameters: unit not given here
# Conditions used: N191 normal
Measured attribute: enzyme activity

Compound	Observed result
CC(C)[C@H](N)C(=O)N[C@@H](CO)C(=O)Nc1ccc2c(c1)Oc1cc(NC(=O)[C@H](CO)NC(=O)[C@@H](N)C(C)C)ccc1C21OC(=O)c2ccccc21 [VS, (H--L--Val--Ser)2 Rho 110-2TFA]	0.64
NCCCC[C@H](N)C(=O)Nc1ccc2c(c1)Oc1cc(NC(=O)[C@@H](N)CCCCN)ccc1C21OC(=O)c2ccccc21 [LYS, (H--L--Lys)2 Rho 110-4TFA]	1.20
C[C@H](N)C(=O)Nc1ccc2c(c1)Oc1cc(NC(=O)[C@H](C)N)ccc1C21OC(=O)c2ccccc21	177.32
NCC(=O)Nc1ccc2c(c1)Oc1cc(NC(=O)CN)ccc1C21OC(=O)c2ccccc21	73.20
C[C@@H](O)[C@H](N)C(=O)N1CCC[C@H]1C(=O)Nc1ccc2c(c1)Oc1cc(NC(=O)[C@@H]3CCCN3C(=O)[C@@H](N)[C@@H](C)O)ccc1C21OC(=O)c2ccccc21	4.73
O=C1OC2(c3ccc(NC(=O)[C@@H]4CCCN4)cc3Oc3cc(NC(=O)[C@@H]4CCCN4)ccc32)c2ccccc21 [PRO, (H--L--Pro)2 Rho 110-2TFA]	4.34
CC(C)C[C@H](N)C(=O)NCC(=O)Nc1ccc2c(c1)Oc1cc(NC(=O)CNC(=O)[C@@H](N)CC(C)C)ccc1C21OC(=O)c2ccccc21	5.37
NCC(=O)N1CCC[C@H]1C(=O)Nc1ccc2c(c1)Oc1cc(NC(=O)[C@@H]3CCCN3C(=O)CN)ccc1C21OC(=O)c2ccccc21	11.20
NC(=O)CC[C@H](N)C(=O)N[C@@H](CO)C(=O)Nc1ccc2c(c1)Oc1cc(NC(=O)[C@H](CO)NC(=O)[C@@H](N)CCC(N)=O)ccc1C21OC(=O)c2ccccc21 [QS, (H--L--Gln--Ser)2 Rho 110-2TFA]	0.19

====

# System: Lymphs
# Experiment notes: Peptidases to distinguish leukemia from non-leukemia, lymphocytes
# Type: cell-based, human
# Set-up: unit not given here
# Conditions used: N200 normal
# Description: Artificial intelligence was used to analyze data of cellular enzyme functions, and determine normal and disease states. Peptidases were used to distinguish leukemia from non-leukemia (output pattern). For input patterns lymphocyte and granulocyte cell types were used with aminopeptidases, cathepsins and dipeptidylpeptidase enzyme activities. […]

Compound	enzyme activity
NCC(=O)N1CCC[C@H]1C(=O)Nc1ccc2c(c1)Oc1cc(NC(=O)[C@@H]3CCCN3C(=O)CN)ccc1C21OC(=O)c2ccccc21 [GP]	5.38
NCC(=O)Nc1ccc2c(c1)Oc1cc(NC(=O)CN)ccc1C21OC(=O)c2ccccc21 [GLY, (Gly)2 Rho 110]	42.28
O=C1OC2(c3ccc(NC(=O)[C@@H]4CCCN4)cc3Oc3cc(NC(=O)[C@@H]4CCCN4)ccc32)c2ccccc21 [PRO, (H--L--Pro)2 Rho 110-2TFA]	0.74
CC(C)[C@H](N)C(=O)N[C@@H](CO)C(=O)Nc1ccc2c(c1)Oc1cc(NC(=O)[C@H](CO)NC(=O)[C@@H](N)C(C)C)ccc1C21OC(=O)c2ccccc21 [VS, (H--L--Val--Ser)2 Rho 110-2TFA]	0.06

====

# Test system: Grans
# Experiment notes: Peptidases to distinguish leukemia from non-leukemia, granulocytes
# Format: cell-based, human
# Design: unit not given here
# Conditions used: P71 ac. pyelonephritis
Reported enzyme activity values for the following molecules.

Molecule	enzyme activity
NCC(=O)Nc1ccc2c(c1)Oc1cc(NC(=O)CN)ccc1C21OC(=O)c2ccccc21	59.35
CC(C)[C@H](N)C(=O)N[C@@H](CO)C(=O)Nc1ccc2c(c1)Oc1cc(NC(=O)[C@H](CO)NC(=O)[C@@H](N)C(C)C)ccc1C21OC(=O)c2ccccc21 [VS, (H--L--Val--Ser)2 Rho 110-2TFA]	0.69
C[C@H](N)C(=O)Nc1ccc2c(c1)Oc1cc(NC(=O)[C@H](C)N)ccc1C21OC(=O)c2ccccc21	185.37

====

Reported enzyme activity values for the following compounds.
# System: Grans
# Experiment notes: Peptidases to distinguish leukemia from non-leukemia, granulocytes
# Format: cell-based, human
# Set-up: unit not given here
# Conditions used: N192 normal
Measured attribute: enzyme activity

Compound	Target of assay	Observed result
C[C@H](N)C(=O)Nc1ccc2c(c1)Oc1cc(NC(=O)[C@H](C)N)ccc1C21OC(=O)c2ccccc21	Grans	154.84
NCC(=O)Nc1ccc2c(c1)Oc1cc(NC(=O)CN)ccc1C21OC(=O)c2ccccc21	Grans	43.67
CC(C)[C@H](N)C(=O)N[C@@H](CO)C(=O)Nc1ccc2c(c1)Oc1cc(NC(=O)[C@H](CO)NC(=O)[C@@H](N)C(C)C)ccc1C21OC(=O)c2ccccc21 [VS, (H--L--Val--Ser)2 Rho 110-2TFA]	Grans	0.40
